Field: composite z-score. Provide a value for each of the compounds that follow.
biological target: Follistatin (Homo sapiens) (UniProt P19883); experiment: FST protein binding to printed compounds – biochemical, small-molecule microarray, 635/667 nm fluorescence, primary screen (AID 1132); settings: 635 nm fluorescence, higher = more signal
Sequence (P19883 whole entry, looked up): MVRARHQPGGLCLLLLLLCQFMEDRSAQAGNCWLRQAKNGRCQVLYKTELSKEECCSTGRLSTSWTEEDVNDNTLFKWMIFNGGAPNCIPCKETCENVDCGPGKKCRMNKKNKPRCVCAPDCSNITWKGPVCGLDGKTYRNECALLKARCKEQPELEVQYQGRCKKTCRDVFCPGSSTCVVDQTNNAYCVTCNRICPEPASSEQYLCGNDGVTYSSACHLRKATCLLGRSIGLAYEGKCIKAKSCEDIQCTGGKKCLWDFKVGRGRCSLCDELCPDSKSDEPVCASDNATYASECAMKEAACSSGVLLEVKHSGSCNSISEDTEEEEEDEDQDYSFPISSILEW
Write no unit; give the number alone.

Task item: Name the recorded composite z-score for `C[N+](C)(C)CCCC[C@@H]1NC(=O)[C@@H]2C[C@H](C(=O)NCCCCCCN)[C@H](c3cccc(OCCO)c3)N2C1=O` .
Reply: 0.976

Task item: Name the recorded composite z-score for `CCOC(=O)C[C@H]1[C@H](OC(=O)Cc2ccc3c(c2)OCO3)[C@@H](NC(=O)c2ccc3ccccc3n2)c2cc(OCCCO)ccc2N1C(=O)c1ccc2ccccc2n1` .
Reply: 0.497

Task item: Name the recorded composite z-score for `CCOC(=O)C[C@H]1[C@H](OC(=O)c2ccc(C(=O)c3ccccc3)cc2)[C@@H](NC(=O)c2ccc(-c3ccccc3)cc2)c2cc(OCCCO)ccc2N1C(=O)Cc1ccc(OC)cc1` .
Reply: 0.51

---

system: Lefty1; assay: Lefty1 protein binding to printed compounds – biochemical, small-molecule microarray, 635/667 nm fluorescence, primary screen (AID 1139); details: fluorescence 635/667, higher = more signal
Response key: true means composite z-score >= 0.5; false means composite z-score < 0.5.

Task item: For this molecule, is measured composite z-score 0.5 or higher? `C=CC[C@@H](OC(=O)Nc1ccc(OC)cc1)c1ccc(O)c(F)c1`
Reply: false

Task item: For this molecule, is measured composite z-score 0.5 or higher? `CCOC(=O)C[C@H]1[C@H](OC(=O)c2ccccc2-c2ccccc2)[C@@H](NC(=O)c2ccc3ccccc3n2)c2cc(OCCCO)ccc2N1C(=O)Cc1ccc(OC)cc1`
Reply: true

Task item: For this molecule, is measured composite z-score 0.5 or higher? `O=C1N(CCS(=O)(=O)c2ccccc2)c2ccccc2[C@H]2OC(c3ccc(OCCCO)cc3)=N[C@@]12Cc1ccccc1`
Reply: false

Task item: For this molecule, is measured composite z-score 0.5 or higher? O=C1NC(=O)C2C1C=CC(C(O)c1ccco1)N2Nc1ccc(Cl)cc1Cl (stereo not given)
Reply: false

---

assay: JC-1 mitochondrial signal, unstimulated adipocytes – cell-based, JC-1 fluorescence, 3T3-L1 adipocytes, 24 h, 100 nL compound, profiling panel (AID 1168); conditions: JC-1 mitochondrial fluorescence, higher = more signal, called active from +8 up or from −8 down; also: test concentration not given here
Response key: yes means z-score >= -0.6; no means z-score < -0.6.

Task item: For this compound, is measured z-score -0.6 or higher? `[N-]=[N+]=NCc1ccccc1C[C@@]1(C(N)=O)N=C(c2ccc(OCCCO)cc2)O[C@@H]1c1ccccc1`
Reply: yes

Task item: For this compound, is measured z-score -0.6 or higher? `CCOC(=O)C1=C[C@@H](c2ccccc2)N(S(=O)(=O)c2ccc(C)cc2)[C@H]1c1ccc(OC)cc1`
Reply: no

Task item: For this compound, is measured z-score -0.6 or higher? `C=C[C@@H](OC)[C@H](OC(=O)Nc1ccc(OC)cc1)c1ccc(O)c(F)c1`
Reply: no

Task item: For this compound, is measured z-score -0.6 or higher? N#Cc1ccc(NN2C(C(O)c3ccc(Br)cc3)C=CC3C(=O)N(c4ccccc4)C(=O)C32)cc1 (stereo not drawn)
Reply: yes

Task item: For this compound, is measured z-score -0.6 or higher? `COc1ccccc1CN1C(=O)c2ccccc2[C@](Cc2ccccc2I)(C(=O)O)[C@@H]1c1ccc(CO)cc1`
Reply: yes

Task item: For this compound, is measured z-score -0.6 or higher? `CC(C)NC(=O)[C@@]1(c2ccc([N+](=O)[O-])cc2)CC(=O)N(C2CCCCC2)[C@@H]1c1ccc(CO)cc1`
Reply: yes

Task item: For this compound, is measured z-score -0.6 or higher? CC(CO)N1C(=O)[C@@H]2[C@H]3C(=O)OCC=C[C@H]3OC23C=CCN(Cn2nnc4ccccc42)C(=O)[C@@H]13 (stereo partly drawn)
Reply: yes

Task item: For this compound, is measured z-score -0.6 or higher? `O=C1N(Cc2ccccc2)c2ccccc2C[C@]12N=C(c1ccc(OCCCO)cc1)O[C@@H]2c1ccccc1`
Reply: yes

Task item: For this compound, is measured z-score -0.6 or higher? `[N-]=[N+]=Nc1ccccc1[C@H]1OC(c2ccc(OCCCO)cc2)=N[C@@]1(Cc1ccccc1)C(=O)NCCN1CCOCC1`
Reply: yes

Task item: For this compound, is measured z-score -0.6 or higher? `CC[C@@H]1O[Si](C(C)C)(C(C)C)c2c1cc(-c1cc(C)c(OC)c(C)c1)nc2-c1ccc(Oc2ccccc2)cc1`
Reply: yes

Task item: For this compound, is measured z-score -0.6 or higher? C[C@@H]1NC(=O)[C@@H](Cc2ccccc2)NC(=O)[C@@]23C(=O)N[C@@H](Cc4ccccc4)C2[C@H](C)[C@@]2(C)O[C@H]2C3/C=C/C/C=C\CNC1=O (stereo partly drawn)
Reply: yes

Task item: For this compound, is measured z-score -0.6 or higher? `CC(C)[Si](C#CCCCC#N)(O[C@H](c1ccccc1)c1cn(Cc2ccccc2)nn1)C(C)C`
Reply: yes

Task item: For this compound, is measured z-score -0.6 or higher? `[N-]=[N+]=Nc1ccccc1C[C@]1(C(=O)O)COC(c2ccc(OCCCO)cc2)=N1`
Reply: no

Task item: For this compound, is measured z-score -0.6 or higher? `COC(=O)c1c(CC[C@@H](CO)NC(=O)N[C@@H](C)Cn2cc(-c3ccccn3)nn2)oc(C(C)=O)c1C(=O)OC`
Reply: no

Task item: For this compound, is measured z-score -0.6 or higher? `C#CCN([C@@H](Cc1ccccc1)C(=O)OC)[C@@H](/C=C/C1CC1)[C@H](O)Cc1ccccc1`
Reply: yes

Task item: For this compound, is measured z-score -0.6 or higher? `CC(C)[Si]1(C(C)C)OCc2cc(C3CC3)nc(-c3ccc(Oc4ccccc4)cc3)c21`
Reply: yes

---

target: Left-right determination factor 2 (Homo sapiens) (UniProt O00292); assay: small molecules binding LEFTY2 protein – biochemical, small-molecule microarray, 635 nm fluorescence scan, primary screen (AID 1110); details: higher = more signal
Sequence (O00292 whole entry, looked up): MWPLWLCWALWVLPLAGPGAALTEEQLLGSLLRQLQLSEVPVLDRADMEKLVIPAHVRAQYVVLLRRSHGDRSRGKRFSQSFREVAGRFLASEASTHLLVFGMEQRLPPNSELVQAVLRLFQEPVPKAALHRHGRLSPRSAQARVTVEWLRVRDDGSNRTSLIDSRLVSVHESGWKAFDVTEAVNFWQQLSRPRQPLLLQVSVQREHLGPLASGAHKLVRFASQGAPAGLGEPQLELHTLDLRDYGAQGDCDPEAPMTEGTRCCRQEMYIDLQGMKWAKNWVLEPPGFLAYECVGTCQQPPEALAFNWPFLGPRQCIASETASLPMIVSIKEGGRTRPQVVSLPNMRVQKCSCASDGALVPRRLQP
Response key: Met means composite z-score >= -0.6; Not met means composite z-score < -0.6.

Task item: For this compound, is measured composite z-score -0.6 or higher? CC(C)c1ccc(NN2C(C(O)c3ccc(C#N)cc3)C=CC3C(=O)N(c4ccccc4)C(=O)C32)cc1 (centres undefined)
Reply: Met

Task item: For this compound, is measured composite z-score -0.6 or higher? `C=C[C@H](C)[C@H](OC(=O)Nc1ccc(SC)cc1)c1ccc(OCCO)cc1`
Reply: Met

Task item: For this compound, is measured composite z-score -0.6 or higher? CCOc1cc(C(O)C2C=CC3C(=O)NC(=O)C3N2Nc2ccc(Cl)cc2Cl)ccc1O (centres undefined)
Reply: Not met

Task item: For this compound, is measured composite z-score -0.6 or higher? `COCCOC(=O)N1C(=O)[C@@]2(c3cc(C#CC4(O)CCCCCC4)ccc31)[C@H](C(=O)N1CCc3cc(OC)c(OC)cc3C1)[C@H]1C(=O)O[C@H](c3ccccc3)[C@H](c3ccccc3)N1[C@@H]2c1ccc(OCCO)cc1`
Reply: Met

Task item: For this compound, is measured composite z-score -0.6 or higher? `CCOC(=O)C1=C[C@@H](C(C)(C)C)N(S(=O)(=O)c2ccc(C)cc2)[C@H]1c1cccc2ccccc12`
Reply: Met

Task item: For this compound, is measured composite z-score -0.6 or higher? `[N-]=[N+]=NCc1ccccc1C[C@@]1(C(N)=O)N=C(c2ccc(OCCCO)cc2)O[C@@H]1c1ccccc1`
Reply: Not met

Task item: For this compound, is measured composite z-score -0.6 or higher? `Cc1ccc(S[C@]2(C(=O)NCC(F)(F)F)CC(=O)N(Cc3cc(C(F)(F)F)cc(C(F)(F)F)c3)[C@@H]2c2ccc(CO)cc2I)cc1`
Reply: Not met

Task item: For this compound, is measured composite z-score -0.6 or higher? `[N-]=[N+]=Nc1ccccc1C[C@]1(C(=O)O)COC(c2ccc(OCCCO)cc2)=N1`
Reply: Not met

Task item: For this compound, is measured composite z-score -0.6 or higher? `CCCCC(=C=CC[C@H](O)c1ccc(OCCO)cc1)CCO`
Reply: Not met

Task item: For this compound, is measured composite z-score -0.6 or higher? CC(=O)N1CC2(CC2)CC1c1ccccc1 (centres undefined)
Reply: Met

Task item: For this compound, is measured composite z-score -0.6 or higher? `COC(=O)[C@@]1(Cc2ccc(F)cc2)[C@H]2c3cc(C(=O)N(C)C)n(Cc4ccc(OC(F)(F)F)cc4)c3C[C@H]2CN1C(=O)c1ccccc1`
Reply: Met

Task item: For this compound, is measured composite z-score -0.6 or higher? `[N-]=[N+]=Nc1ccccc1C[C@@]1(C(=O)NCCN2CCOCC2)N=C(c2ccc(OCCCO)cc2)O[C@@H]1c1ccccc1N=[N+]=[N-]`
Reply: Met

Task item: For this compound, is measured composite z-score -0.6 or higher? `CN(C)C(=O)[C@@]1(Cc2ccccc2CN=[N+]=[N-])N=C(c2ccc(OCCCO)cc2)O[C@H]1c1ccccc1N=[N+]=[N-]`
Reply: Met

Task item: For this compound, is measured composite z-score -0.6 or higher? `O=C1C[C@]2(c3ccc([N+](=O)[O-])cc3)C(=O)N(C3CC3)c3cc(CO)ccc3[C@H]2N1CC12CC3CC(CC(C3)C1)C2`
Reply: Not met

Task item: For this compound, is measured composite z-score -0.6 or higher? `[N-]=[N+]=Nc1ccccc1[C@@H]1OC(c2ccc(OCCCO)cc2)=N[C@]1(Cc1ccccc1)C(=O)N1CCCCC1`
Reply: Met

Task item: For this compound, is measured composite z-score -0.6 or higher? `CCOC(=O)C[C@H]1[C@H](OC(=O)c2ccc(C(=O)c3ccccc3)cc2)[C@@H](NC(=O)CC(C)C)c2cc(OCCCO)ccc2N1C(=O)c1ccccc1`
Reply: Met

Task item: For this compound, is measured composite z-score -0.6 or higher? `O=C(O)[C@@H]1C[C@@H]2C(=O)N3CCC[C@H]3C(=O)N2[C@@H]1c1ccc(O)cc1`
Reply: Met

Task item: For this compound, is measured composite z-score -0.6 or higher? `COc1ccc([C@H]2OC[C@@H]3C[C@H](Cc4ccccc4)C(=O)N32)cc1`
Reply: Met

Task item: For this compound, is measured composite z-score -0.6 or higher? `C#Cc1cc2ccccc2oc1=O`
Reply: Not met
